System: MDA-MB-231 cells
measurement notes: MTT cell viability assay
Format: cell-based
condition context: Homo sapiens; MDA-MB-231 (Table 2); read-out: Cell viability (MTT) IC50
pIC50: −log10 of the molar value.

compound	measurement target	censoring operator	pIC50
COc1cc2c(NC3CCN(C(C)C)CC3)nc(C3CCCCC3)nc2cc1OCCCN1CCCC1 [UNC0638, reference compound]	MDA-MB-231 cells	=	5.09
CCCc1cc(C)[nH]c(=O)c1CNC(=O)c1cc(-c2ccnc(N3CCN(C)CC3)c2)cc2c1cnn2C(C)C [GSK343, reference compound]	MDA-MB-231 cells	<	4.82
COc1cc2nc(N3CCCN(C)CC3)nc(NC3CCN(Cc4ccccc4)CC3)c2cc1OC [BIX01294, reference compound]	MDA-MB-231 cells	=	5.02
COc1cc2nc(N3CCN(C)CC3)nc(NC3CCN(Cc4ccccc4)CC3)c2cc1OC	MDA-MB-231 cells	=	5.37

* * *

Tested on: KRT17
measurement notes: qRT-PCR of KRT17 mRNA in MDA-MB-231 cells
Type: cell-based
condition context: Homo sapiens, 48 h; MDA-MB-231, single dose 10 μM, normalised against GAPDH; read-out: KRT17 RNA level, fold increase compared to the mock treated sample
Experimental: Following compound treatment of MDA-MB-231 for 48 h (in 6-well plates), media was removed and 1.5 ml of TRIzol (Invitrogen) was added directly to lyse cells and RNA was isolated according to the manufacturer’s instructions. Reverse transcription was done using the SuperScript III First-Strand Synthesis System (Invitrogen) according to the manufacturer’s instructions. Each measurement was done in triplicate, and the List of Primers can be found in Additional file 2: Table S1. […]
In plain terms, low fold induction at 10 µM, meaning strictly below 1, gives 1 (yes), and everything else gives 0 (no).

compound	class assignment
COc1cc2nc(N3CCCN(C)CC3)nc(NCc3ccccn3)c2cc1OC	1 (yes)
CCCc1cc(C)[nH]c(=O)c1CNC(=O)c1cc(-c2ccnc(N3CCN(C)CC3)c2)cc2c1cnn2C(C)C [GSK343, reference compound]	1 (yes)
COc1cc2nc(NCCCN(C)C)nc(NC3CCN(Cc4ccccc4)CC3)c2cc1OC	1 (yes)
COc1cc2nc(N3CCCC(CO)C3)nc(NC3CCN(C)CC3)c2cc1OC (centres unmarked)	0 (no)
COc1cc2nc(N3CCCN(C)CC3)nc(NC3CCN(Cc4ccccc4)CC3)c2cc1OC [BIX01294, reference compound]	0 (no)

* * *

measurement target: trimeric PRC2 complex (EZH2:EED:SUZ12) (Homo sapiens, UniProt O75530+Q15022+Q15910)
Sequence (Q15910 whole entry): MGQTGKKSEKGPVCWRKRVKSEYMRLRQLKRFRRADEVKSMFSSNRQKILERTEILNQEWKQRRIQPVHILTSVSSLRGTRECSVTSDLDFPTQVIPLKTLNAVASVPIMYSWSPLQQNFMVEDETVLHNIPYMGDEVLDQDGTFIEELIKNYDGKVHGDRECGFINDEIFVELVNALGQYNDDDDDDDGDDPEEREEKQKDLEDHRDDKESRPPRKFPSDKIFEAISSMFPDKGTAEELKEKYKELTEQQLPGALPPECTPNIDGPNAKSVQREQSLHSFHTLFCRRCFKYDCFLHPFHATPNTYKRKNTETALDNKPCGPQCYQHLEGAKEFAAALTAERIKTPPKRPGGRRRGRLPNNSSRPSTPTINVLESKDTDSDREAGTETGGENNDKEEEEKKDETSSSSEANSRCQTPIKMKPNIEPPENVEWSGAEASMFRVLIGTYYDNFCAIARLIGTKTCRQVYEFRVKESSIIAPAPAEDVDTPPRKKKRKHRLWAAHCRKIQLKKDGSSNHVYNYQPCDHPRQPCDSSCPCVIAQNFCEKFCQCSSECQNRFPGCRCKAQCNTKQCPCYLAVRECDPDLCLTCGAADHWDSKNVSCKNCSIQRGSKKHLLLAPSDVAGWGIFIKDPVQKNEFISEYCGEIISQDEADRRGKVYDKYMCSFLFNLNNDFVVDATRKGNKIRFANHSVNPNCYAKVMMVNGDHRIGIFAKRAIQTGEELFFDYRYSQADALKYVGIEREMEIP
Sequence (O75530 whole entry partner): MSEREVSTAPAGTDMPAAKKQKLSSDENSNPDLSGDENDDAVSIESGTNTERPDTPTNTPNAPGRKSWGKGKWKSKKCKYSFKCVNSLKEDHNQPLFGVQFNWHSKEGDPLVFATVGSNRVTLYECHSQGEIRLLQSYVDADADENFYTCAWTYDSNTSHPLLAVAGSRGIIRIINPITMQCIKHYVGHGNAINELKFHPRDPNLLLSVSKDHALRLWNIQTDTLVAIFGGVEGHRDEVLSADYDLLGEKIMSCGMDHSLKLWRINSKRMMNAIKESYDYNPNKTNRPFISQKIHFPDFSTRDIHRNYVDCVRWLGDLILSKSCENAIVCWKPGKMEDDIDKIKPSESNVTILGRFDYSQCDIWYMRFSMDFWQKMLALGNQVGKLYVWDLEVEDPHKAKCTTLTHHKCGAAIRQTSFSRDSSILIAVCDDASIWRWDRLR
Sequence (Q15022 whole entry partner): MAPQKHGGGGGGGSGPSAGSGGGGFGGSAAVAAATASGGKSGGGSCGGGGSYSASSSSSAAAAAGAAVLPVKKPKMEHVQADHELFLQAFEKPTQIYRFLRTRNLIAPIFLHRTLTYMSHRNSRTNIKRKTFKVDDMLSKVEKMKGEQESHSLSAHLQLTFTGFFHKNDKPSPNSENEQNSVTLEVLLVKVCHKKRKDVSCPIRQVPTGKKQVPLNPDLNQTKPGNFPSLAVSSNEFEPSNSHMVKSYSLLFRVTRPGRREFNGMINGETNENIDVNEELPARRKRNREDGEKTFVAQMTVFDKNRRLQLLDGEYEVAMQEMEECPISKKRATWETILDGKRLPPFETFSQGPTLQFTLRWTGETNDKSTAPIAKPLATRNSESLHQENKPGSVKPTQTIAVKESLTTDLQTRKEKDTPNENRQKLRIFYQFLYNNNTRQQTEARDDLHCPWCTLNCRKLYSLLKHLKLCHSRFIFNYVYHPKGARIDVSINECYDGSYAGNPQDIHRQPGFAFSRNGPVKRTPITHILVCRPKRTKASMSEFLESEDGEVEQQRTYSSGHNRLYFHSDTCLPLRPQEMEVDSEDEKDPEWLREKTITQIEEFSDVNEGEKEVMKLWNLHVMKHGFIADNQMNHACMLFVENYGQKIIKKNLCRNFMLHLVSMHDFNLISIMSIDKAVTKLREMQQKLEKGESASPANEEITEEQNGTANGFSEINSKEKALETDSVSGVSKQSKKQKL
measurement notes: PRC2 enzymatic assay (SPA-type), biotinylated-H3 (21–44) peptide substrate
condition context: EZH2:EED:SUZ12, biotinylated-H3 (21–44) peptide substrate

molecular string	IC50
COc1cc2nc(N3CCCCC3)nc(NC3CCN(Cc4ccccc4)CC3)c2cc1OC	16 µM
COc1cc2nc(N3CCN(C)CC3)nc(NC3CCN(Cc4ccccc4)CC3)c2cc1OC	24 µM
COc1cc2nc(N3CCN(c4ccccn4)CC3)nc(NC3CCN(Cc4ccccc4)CC3)c2cc1OC	12 µM

Source listed as paper PMC4545913.
